# testDetails: activity coefficient (dimensionless); of the first substance listed, at infinite dilution; xn = mol fraction of the nth substance listed
# conditionDescription: 348.15 K; 101.33 kPa; Liquid; Chromatography; x1 = 0
Let's look at some molecules and their measured activity coefficient.
// return a plain number; no unit text

Any idea what its activity coefficient is? The molecule is CO [methanol] + CCCCCCCCCCCCn1cc[n+](C)c1.O=S(=O)([N-]S(=O)(=O)C(F)(F)F)C(F)(F)F
1.1

Any idea what its activity coefficient is? The molecule is C1COCCO1 [1,4-dioxane] + CCCCCCCCCCCCn1cc[n+](C)c1.O=S(=O)([N-]S(=O)(=O)C(F)(F)F)C(F)(F)F
0.548

Any idea what its activity coefficient is? The molecule is C=CCCC [1-pentene] + CCCCCCCCCCCCn1cc[n+](C)c1.O=S(=O)([N-]S(=O)(=O)C(F)(F)F)C(F)(F)F
1.99

Any idea what its activity coefficient is? The molecule is C=CCCCCCC [oct-1-ene] + CCCCCCCCCCCCn1cc[n+](C)c1.O=S(=O)([N-]S(=O)(=O)C(F)(F)F)C(F)(F)F
3.23

Any idea what its activity coefficient is? The molecule is C=CCCCC [hex-1-ene] + CCCCCCCCCCCCn1cc[n+](C)c1.O=S(=O)([N-]S(=O)(=O)C(F)(F)F)C(F)(F)F
2.29

Any idea what its activity coefficient is? The molecule is C=Cc1ccccc1 [styrene] + CCCCCCCCCCCCn1cc[n+](C)c1.O=S(=O)([N-]S(=O)(=O)C(F)(F)F)C(F)(F)F
0.736

Others:
Any idea what its activity coefficient is? The molecule is CCC(=O)OC [methyl propanoate] + CCCCCCCCCCCCn1cc[n+](C)c1.O=S(=O)([N-]S(=O)(=O)C(F)(F)F)C(F)(F)F
0.608

---

# testDetails: activity coefficient (dimensionless); of the first substance listed, at infinite dilution; xn = mol fraction of the nth substance listed
# conditionDescription: 318.15 K; 101.33 kPa; Liquid; Chromatography; x1 = 0
Let's look at some compounds and their measured activity coefficient.
// return a plain number; no unit text

Any idea what its activity coefficient is? The compound is CCCC(=O)OC [methyl butanoate] + CCCCCCCCCCCCn1cc[n+](C)c1.O=S(=O)([N-]S(=O)(=O)C(F)(F)F)C(F)(F)F
0.613

Any idea what its activity coefficient is? The compound is CCC(C)O (stereo not drawn) [butan-2-ol] + CCCCCCCCCCCCn1cc[n+](C)c1.O=S(=O)([N-]S(=O)(=O)C(F)(F)F)C(F)(F)F
1.29

Now consider the entry below.
Any idea what its activity coefficient is? The compound is CC(C)O [propan-2-ol] + CCCCCCCCCCCCn1cc[n+](C)c1.O=S(=O)([N-]S(=O)(=O)C(F)(F)F)C(F)(F)F
1.34

---

# testDetails: activity coefficient (dimensionless); of the first substance listed, at infinite dilution; xn = mol fraction of the nth substance listed
# conditionDescription: 328.15 K; 101.33 kPa; Liquid; Chromatography; x1 = 0
Outcome label depends on activity coefficient relative to 1: at/above gives Condition met, below gives Condition not met.

Please tell me: is the compound C#CCCCCC [1-heptyne] + CCCCCCCCCCCCn1cc[n+](C)c1.O=S(=O)([N-]S(=O)(=O)C(F)(F)F)C(F)(F)F at or over 1 in terms of activity coefficient?
Condition met

Please tell me: is the compound CCCC(C)=O [pentan-2-one] + CCCCCCCCCCCCn1cc[n+](C)c1.O=S(=O)([N-]S(=O)(=O)C(F)(F)F)C(F)(F)F at or over 1 in terms of activity coefficient?
Condition not met

Others:
Please tell me: is the compound c1ccsc1 [thiophene] + CCCCCCCCCCCCn1cc[n+](C)c1.O=S(=O)([N-]S(=O)(=O)C(F)(F)F)C(F)(F)F at or over 1 in terms of activity coefficient?
Condition not met

Please tell me: is the compound C1CCCC1 [cyclopentane] + CCCCCCCCCCCCn1cc[n+](C)c1.O=S(=O)([N-]S(=O)(=O)C(F)(F)F)C(F)(F)F at or over 1 in terms of activity coefficient?
Condition met

Please tell me: is the compound C1=CCCCC1 [cyclohexene] + CCCCCCCCCCCCn1cc[n+](C)c1.O=S(=O)([N-]S(=O)(=O)C(F)(F)F)C(F)(F)F at or over 1 in terms of activity coefficient?
Condition met

Please tell me: is the compound CCOC(C)(C)C [2-ethoxy-2-methylpropane] + CCCCCCCCCCCCn1cc[n+](C)c1.O=S(=O)([N-]S(=O)(=O)C(F)(F)F)C(F)(F)F at or over 1 in terms of activity coefficient?
Condition met

Please tell me: is the compound CO [methanol] + CCCCCCCCCCCCn1cc[n+](C)c1.O=S(=O)([N-]S(=O)(=O)C(F)(F)F)C(F)(F)F at or over 1 in terms of activity coefficient?
Condition met

Please tell me: is the compound CCC(=O)OC [methyl propanoate] + CCCCCCCCCCCCn1cc[n+](C)c1.O=S(=O)([N-]S(=O)(=O)C(F)(F)F)C(F)(F)F at or over 1 in terms of activity coefficient?
Condition not met

Please tell me: is the compound CC(C)CC(C)(C)C [2,2,4-trimethylpentane] + CCCCCCCCCCCCn1cc[n+](C)c1.O=S(=O)([N-]S(=O)(=O)C(F)(F)F)C(F)(F)F at or over 1 in terms of activity coefficient?
Condition met

Please tell me: is the compound CC#N [acetonitrile] + CCCCCCCCCCCCn1cc[n+](C)c1.O=S(=O)([N-]S(=O)(=O)C(F)(F)F)C(F)(F)F at or over 1 in terms of activity coefficient?
Condition not met

Please tell me: is the compound O [water] + CCCCCCCCCCCCn1cc[n+](C)c1.O=S(=O)([N-]S(=O)(=O)C(F)(F)F)C(F)(F)F at or over 1 in terms of activity coefficient?
Condition met
